# System: HCT-15 colon
# protocol details: NCI tumour cell line growth inhibition, 48 h
measurement label: TGI

Recorded results for 8 compounds are shown here.
C#C[C@]1(O)CC[C@H]2[C@@H]3CC=C4c5sc(Nc6ccccc6)nc5CC[C@]4(C)[C@H]3CC[C@@]21C = 6.47 µM
CC(=O)OCC1OC(Nc2ncc(-c3ccc(C)cc3)s2)C(OC(C)=O)C(OC(C)=O)C1OC(C)=O (stereo not given) = > 100 µM
CCOC(=O)CC1c2ccc(O)cc2OC(=O)C1c1ccc([N+](=O)[O-])cc1 (stereo not given) = > 100 µM
C/C(=N\Nc1cc(CN2CCCC2)c(-c2ccc(Cl)cc2)nn1)C(=O)O = > 100 µM
c1cc(-c2ncc(-c3ccc4c(c3)CCCO4)o2)ccn1 = 69.7 µM
Clc1ccc(Cl)c(Nc2ccnc(SCc3ccccc3)n2)c1 = > 100 µM
Cc1ccc(S(=O)(=O)C2=Cc3ccc(C(F)(F)F)cc3C2(O)c2cccc(C(F)(F)F)c2)cc1 (stereo not given) = 4.27 µM
CCN1CCN(c2ccc(Nc3ccnc4ccc5nn(C)nc5c34)cc2)CC1 = 27.6 µM

I have this compound here, "O=c1cc(-c2ccccc2)[nH]c2cc3c(cc12)OCO3" , and I need its recorded TGI.
> 100 µM

I have this compound here, "Cc1cc(NC(=O)c2ccc(C)c(Nc3nccc(-c4cccnc4)n3)c2)cc(-n2cnc(C)c2)c1" , and I need its recorded TGI.
> 27 µM

I have this compound here, COC(CN(C(=O)c1ccccc1)C1CCC2(SCCS2)c2[nH]c3ccccc3c21)OC (stereo not given) , and I need its recorded TGI.
> 100 µM

I have this compound here, "CC(=O)N(C(=O)CC(=O)N/N=C\c1ccc(Br)c(N(CCC#N)CCC#N)c1)c1ccc(Cl)cc1" , and I need its recorded TGI.
> 100 µM

I have this compound here, N#CC1Nc2ccccc2[C@@H](O)C1O (stereo not given in full) , and I need its recorded TGI.
> 100 µM

I have this compound here, "N#Cc1c(-c2ccccc2)[nH]c2ccccc2c1=O" , and I need its recorded TGI.
> 100 µM

I have this compound here, "COc1ccc(CNc2c3ccccc3nc3ccccc23)cc1OC" , and I need its recorded TGI.
7.17 µM

I have this compound here, "Fc1ccc(Nc2cc(-n3nnc4ccccc43)nc3ccccc23)cc1" , and I need its recorded TGI.
> 100 µM

I have this compound here, "COc1cccc(CCn2c(N)c(-c3ccccc3)c3ccc([N+](=O)[O-])cc3c2=O)c1" , and I need its recorded TGI.
27.9 µM

I have this compound here, "O=[N+]([O-])c1ccc(-n2nnc(C3=NCCCN3)c2-c2ccc(Cl)cc2)cc1" , and I need its recorded TGI.
> 100 µM

I have this compound here, CC(C)c1ccccc1S(=O)c1ccccc1C(C)(C)O (stereo not given) , and I need its recorded TGI.
> 100 µM

I have this compound here, CC12CCC(C(=O)OC1=O)C2(C)C (stereo not given) , and I need its recorded TGI.
> 100 µM

I have this compound here, CCCCCC(C[N+]1(C)CCOCC1)C(=O)/C=C/c1ccccc1 (stereo not given) , and I need its recorded TGI.
25 µM

I have this compound here, "O=C(O)c1cccc(OCCO)c1" , and I need its recorded TGI.
> 100 µM

I have this compound here, CC(=O)OCC1OC([S-])C(OC(C)=O)C(OC(C)=O)C1OC(C)=O.CC[PH+](CC)CC.CC[PH+](CC)CC.[Au].[Au] (stereo not given) , and I need its recorded TGI.
0.452 µM

I have this compound here, O=C(CC(c1ccccc1)N1CCCCC1)c1ccccc1 (stereo not given) , and I need its recorded TGI.
36.6 µM

I have this compound here, CCOC(=O)C1=C(C)N(N)C(=S)NC1c1ccc(C)cc1 (stereo not given) , and I need its recorded TGI.
> 100 µM

I have this compound here, "O=C(CCC(=O)Nc1cccc(Cl)c1)CC(=O)c1ccc(Cl)cc1" , and I need its recorded TGI.
> 100 µM

====

# Tested on: SF-295 CNS
# protocol details: NCI tumour cell line growth inhibition, 48 h; in the data active = GI50 below about 0.43 µM; inactive = the rest
Bench note: report the call from yes (1) for active, no (0) for inactive

C#CC(=O)Nc1cccc(Nc2nc3c(c(NCc4ccccc4)n2)CCCC3)c1 = yes (1)
Cc1ccc(Nc2nc(N)c(C(=O)c3ccc(C#N)cc3)s2)cc1 = yes (1)
O=C1c2ccn(CCCCNC(CO)(CO)CO)c2C(=O)c2c1c(O)c1ccccc1c2O = no (0)
CC(=O)OCC1OC([S-])C(OC(C)=O)C(OC(C)=O)C1OC(C)=O.CC[PH+](CC)CC.CC[PH+](CC)CC.[Au].[Au] (configuration not stated) = no (0)
CN(C)c1ccc2nc3ccc(=O)cc-3sc2c1 = no (0)
Nc1ccncc1/C=C1/C(=O)Nc2ccccc21 = no (0)
CC(=O)c1c(CBr)n([O-])c2ccccc2[n+]1=O = no (0)
CCOC(=O)N1CCN(C(=O)c2ccc(C(F)(F)F)nc2Nc2cc(Cl)ccc2C)CC1 = no (0)
Nc1nc(Br)nc2c1ncn2C1CC(O)C(CO)O1 (configuration not stated) = no (0)
O=C(CN(C1CCCCC1)C1CCCCC1)Nc1ccc(S(=O)(=O)c2ccc(NC(=O)CN(C3CCCCC3)C3CCCCC3)cc2)cc1 = no (0)

GET /call?item= "CC(=O)Oc1ccc(Nc2c3ccccc3nc3ccccc23)cc1" returns the recorded outcome of this test.
no (0)

GET /call?item= "Fc1ccc(Nc2cc(-n3nnc4ccccc43)nc3ccccc23)cc1" returns the recorded outcome of this test.
no (0)

====

# System: SF-539 CNS
# protocol details: NCI tumour cell line growth inhibition, 48 h
measurement label: TGI

Recorded results for 10 compounds are shown here.
O=c1c(-c2ccccc2)c(SCCCN2CCN(c3cccc(Cl)c3)CC2)n(-c2ccccc2)c(=S)n1-c1ccccc1 = > 100 µM
COc1cccc(CCn2c(N)c(-c3ccccc3)c3ccc([N+](=O)[O-])cc3c2=O)c1 = 6.28 µM
C#CC(=O)Nc1cccc(Nc2nc3c(c(NCc4ccccc4)n2)CCCC3)c1 = < 0.01 µM
C/C(=C1/CCCC2(N=NCC2c2ccccc2)C1=O)c1ccccc1 (stereo not given) = > 100 µM
CN1CCc2c(Sc3ccc(C(=O)NO)cc3)c3ccccc3n2C1 = 3.11 µM
N#CC(C(=O)/C(=N/Nc1nc(=S)[nH]n1N)C(C#N)c1ccccc1)c1ccccc1 (stereo not given) = > 100 µM
CCN(CC)CCNCC(=O)Oc1ccc(/C=C/C(=O)CC(=O)/C=C/c2ccc(OC(=O)CNCCN(CC)CC)c(OC)c2)cc1OC = 6.74 µM
O=C(O)c1nc(-c2ccccn2)c(-c2ccccn2)nc1C(=O)O = 20.6 µM
Cc1cccc(/C=N/NC(=S)NCCc2ccccn2)n1 = > 73.3 µM
COc1ccc(C(=O)C(CO)Oc2ccccc2OC)cc1OC (stereo not given) = > 100 µM

Requested read-out TGI, target or system SF-539 CNS, entry CCCCCC(C[N+]1(C)CCOCC1)C(=O)/C=C/c1ccccc1 (stereo not given)
23.5 µM

Requested read-out TGI, target or system SF-539 CNS, entry Cc1cccc2c1Oc1cc(Cl)ccc1C2NC(=O)CCN1CCOCC1 (stereo not given)
> 100 µM

Requested read-out TGI, target or system SF-539 CNS, entry "Cc1n(Cc2ccc3ccccc3c2)cc[n+]1Cc1ccc2ccccc2c1"
7.14 µM

Requested read-out TGI, target or system SF-539 CNS, entry "Cc1ccc2c(c1CCCC(C)(C)O)C(=O)C(=O)C(C(C)C)=C2O"
> 100 µM

Requested read-out TGI, target or system SF-539 CNS, entry "CO[C@H]1[C@@H](O)[C@@H](C)O[C@@H](O[C@H]2CC[C@@]3(C)[C@H](CC[C@@H]4[C@@H]3CC[C@]3(C)[C@@H](C5=CC(=O)OC5)[C@@H](OC(C)=O)C[C@]43O)C2)[C@@H]1O"
0.091 µM

Requested read-out TGI, target or system SF-539 CNS, entry "CCOC(=O)C1(C(=O)OCC)CN(CC)CN(c2ccccc2)C1"
41.2 µM

Requested read-out TGI, target or system SF-539 CNS, entry "NC1CCCC[C@H]1N.N[C@@H]1CCCC[C@@H]1N.O=C(P(=O)([O-])[O-])P(=O)([O-])[O-].[Pt+4].[Pt+4]"
> 100 µM

Requested read-out TGI, target or system SF-539 CNS, entry O=C(CC(c1ccccc1)N1CCCCC1)c1ccccc1 (stereo not given)
39.2 µM

====

# Test system: A498 renal
# protocol details: NCI tumour cell line growth inhibition, 48 h; in the data active = GI50 below about 0.43 µM; inactive = the rest
Bench note: report the call from 1.0 = active, 0.0 = inactive

Examples from the recorded data:
CCN(CC)CCNCC(=O)Oc1ccc(/C=C/C(=O)CC(=O)/C=C/c2ccc(OC(=O)CNCCN(CC)CC)c(OC)c2)cc1OC = 0.0
COc1cc(NC(C)CCCN)c2nccc(C)c2c1OC (stereo unspecified) = 0.0
CCN1C(=O)N(CC)C2C1NC(=S)N2/N=C/C=C/c1cccs1 (stereo unspecified) = 1.0

GET /call?item= CCOC(=O)C1=C(C)N(N)C(=S)NC1c1ccc(C)cc1 (stereo unspecified) returns the recorded outcome of this test.
0.0

GET /call?item= COc1ccc(C2C(C#N)=C(N)OC3=C2COc2ccc(F)cc23)cc1OC (stereo unspecified) returns the recorded outcome of this test.
0.0

GET /call?item= "CN(C)c1ccc2nc3ccc(=O)cc-3sc2c1" returns the recorded outcome of this test.
0.0
